Assay: Acute therapeutic index as ratio of potency in pleural effusion to that of potency in gastric toxicity assay
Format: tissue-based
Settings: Stomach; read-out: Acute TI
Exercise: for every item that follows, state its recorded selectivity ratio.
One number for each entry.

Answered examples (2):
Nc1c(CC(=O)[O-])cccc1C(=O)c1ccc(Br)cc1.Nc1c(CC(=O)[O-])cccc1C(=O)c1ccc(Br)cc1.O.O.O.[Na+].[Na+] [BROMFENAC SODIUM]: 5.4
Nc1c(CC(=O)[O-])cccc1C(=O)c1ccc(Cl)cc1.[Na+]: 4.3

Give selectivity ratio for each of the items listed below.
1. Nc1c(CC(=O)[O-])cc(F)cc1C(=O)c1ccc(Br)cc1.[Na+]
2. Cc1cc(CC(=O)O)n(C)c1C(=O)c1ccc(Cl)cc1 [ZOMEPIRAC]
3. Nc1c(CC(=O)[O-])cccc1C(=O)c1ccc(I)cc1.[Na+]
4. Nc1c(CC(=O)[O-])cc(Cl)cc1C(=O)c1ccc(I)cc1.[Na+]

4.9
3.1
1.3
1.1

Batch request: selectivity ratio for each of the following compounds.
1. Nc1c(CC(=O)[O-])cc(Cl)cc1C(=O)c1ccc(Cl)cc1.[Na+]
2. Nc1c(CC(=O)[O-])cc(Cl)cc1C(=O)c1ccc(Br)cc1.[Na+]

3.8
10
